# ASSAY TEXT: gradient 5% acetonitrile 3 min, to 50% in 2 min, to 85% in 15 min, held 3 min, 100 µL/min
# CONDITION SET: column: Zorbax Extend-C18 2.1 x 50 mm; eluents: water / acetonitrile, 0.1% formic acid
PROPERTY: RP-LC retention time (s)

# COMPOUND, OUTPUT UNIT, RP-LC retention time
rows = [
    ("O=C(NC1CCc2nnc(C3CC3)n2CC1)c1ccsc1 (configuration not stated)", "s", 594),
    ("CCCn1ncc(N2CCC(C(=O)N3CCCCC3)CC2)cc1=O", "s", 559),
]

I = CCn1cc(-c2nc(-c3ccc(C)cc3)no2)c(=O)c2cc(F)c(N3CCOCC3)cc21
II = O=C(NCc1cccnc1)C1CCN(Cc2cc3ccccc3n2Cc2ccccc2Cl)CC1
Incoming: So which one has the bigger RP-LC retention time here, I or II ? The response must carry the label of the picked entry.
Outgoing: I

P = COc1ccc(Cn2c(=O)c3sccc3n(Cc3nc(-c4cccc(OC)c4)no3)c2=O)cc1
Q = COCc1ncc(C)n1CC1CN(C(=O)C2(c3ccccc3)CC2)C1
Incoming: Lab log: flag the item ( P or Q ) with the smaller RP-LC retention time figure. The response must carry the label of the picked entry.
Outgoing: Q

a = CCOc1ccccc1NC(=O)C1CCc2nc(N3CCCCC3)ncc2C1 (configuration not stated)
b = COc1ccc(NC(=O)NCCn2c(C)nc3ccccc32)c(OC)c1
Incoming: Lab log: flag the item ( a or b ) with the smaller RP-LC retention time figure. The response must carry the label of the picked entry.
Outgoing: b
(b: 604 s, a: 903 s)

###

# ASSAY TEXT: gradient 5% acetonitrile 3 min, to 50% in 2 min, to 85% in 15 min, held 3 min, 100 µL/min
# CONDITION SET: column: Zorbax Extend-C18 2.1 x 50 mm; eluents: water / acetonitrile, 0.1% formic acid
PROPERTY: RP-LC retention time (s)

# MOLECULE, OUTPUT UNIT, MEASURED NUMBER
records = [
    ("O=C(c1ccc(-c2cccs2)nc1)N1CCN(c2ccccn2)CC1", "s", 604),
    ("O=C(Nc1cccc(Br)c1)N1CCC(N2CCN(Cc3ccccc3)C2=O)CC1", "s", 847),
    ("COc1cccc(CNc2cc(-n3nc(C)cc3C)ncn2)c1", "s", 896),
    ("CCCNC(=O)C1CCN(c2ccc(SCC(=O)Nc3cc(F)ccc3F)nn2)CC1", "s", 670),
    ("O=c1n(Cc2ccccc2)nc2ccc(S(=O)(=O)N3CCCC3)cn12", "s", 675),
    ("COCCCNC(=O)C1CCCN(S(=O)(=O)c2ccc(OC)c(OC)c2)C1 (stereo not given)", "s", 699),
    ("O=C(Cc1cccc(C(F)(F)F)c1)Nc1cccn2c(C3CCC3)nnc12", "s", 905),
    ("C(=C\\c1ccccc1)/CN1CCN(C(c2ccccc2)c2ccccc2)CC1", "s", 972),
    ("Cc1cccc(C)c1NC(=O)Cn1cnc2nc3c(cc2c1=O)CC(C)CC3 (stereo not given)", "s", 758),
    ("COc1ccc(C2(C(=O)N3CCCCCCNC(=O)[C@@H]4CCCC[C@@H]43)CC2)cc1", "s", 894),
    ("O=C(Cc1cccs1)NC1CC(=O)N(C2CC2)C1 (stereo not given)", "s", 584),
    ("Cc1cc(N2CCN(S(=O)(=O)c3ccccc3)CC2)nc(NC2CCCCC2)n1", "s", 776),
    ("O=C(Nc1ccc(F)c(Cl)c1)C1CCN(C(=O)C2Sc3ccccc3NC2=O)CC1 (stereo not given)", "s", 826),
    ("Cc1sc(NC(=O)c2ccc(F)cc2)nc1-c1ccc2c(c1)NC(=O)CO2", "s", 872),
    ("Cc1noc(COC2CCN(C(=O)c3ccccc3F)CC2)n1", "s", 818),
]

###

# ASSAY TEXT: gradient 5% acetonitrile 3 min, to 50% in 2 min, to 85% in 15 min, held 3 min, 100 µL/min
# CONDITION SET: column: Zorbax Extend-C18 2.1 x 50 mm; eluents: water / acetonitrile, 0.1% formic acid
PROPERTY: RP-LC retention time (s)

# COMPOUND, MEASURED NUMBER
data = [
    ("CCOC(=O)N1CCN(C(=O)Cc2c(C)nn(-c3nc(-c4ccc(F)cc4)cs3)c2C)CC1", 1010),
    ("CCc1nc(-c2cc(S(=O)(=O)N3CCC(C(=O)Nc4cccc(C#N)c4)CC3)c(C)s2)no1", 1020),
    ("O=C(Cc1ccccc1Br)N1CCc2cc(-c3ccno3)ccc21", 1030),
    ("COC(=O)COC(=O)c1cn(-c2ccc(C)cc2)c(=O)c2ccccc12", 986),
]

###

# ASSAY TEXT: gradient 5% acetonitrile 3 min, to 50% in 2 min, to 85% in 15 min, held 3 min, 100 µL/min
# CONDITION SET: column: Zorbax Extend-C18 2.1 x 50 mm; eluents: water / acetonitrile, 0.1% formic acid
PROPERTY: RP-LC retention time (s)

Here is how some compounds turned out for RP-LC retention time.
# COMPOUND, RP-LC retention time [s]
measured = [
    ("Cc1ccc(NC(=O)CN(C)S(=O)(=O)c2cc(C(=O)N3CCC(C)CC3)n(C)c2)cc1Cl", 998),
    ("O=C(Nc1ccc(Cl)cc1)C1CCN(S(=O)(=O)c2ccc(-c3noc(C4CC4)n3)cc2)CC1", 1100),
    ("Cc1cc(Cl)ccc1NC(=O)CCc1c(C)nn(-c2cc(N(C)C)ncn2)c1C", 862),
    ("CCc1ccc(CNC(=O)C2CCCN(c3ncnc4c3oc3ccccc34)C2)cc1 (stereo not drawn)", 871),
    ("O=C(Cc1ccccc1Br)NC1CCN(c2cc(-c3ccc(F)cc3)[nH]n2)C1 (stereo not drawn)", 752),
]

a = Cc1nc(-c2cn(C(C)C)c3ncccc23)sc1C(=O)N1CCCCC1
b = CC(=O)Nc1ccc(NC(=O)C2CC(=O)N(c3ccc4c(c3)CCN4C(=O)C3CC3)C2)cc1 (stereo not drawn)
Incoming: Lab log: flag the item ( a or b ) with the smaller RP-LC retention time figure. The response must carry the label of the picked entry.
Outgoing: b
(b: 658 s, a: 958 s)

###

# ASSAY TEXT: gradient 5% acetonitrile 3 min, to 50% in 2 min, to 85% in 15 min, held 3 min, 100 µL/min
# CONDITION SET: column: Zorbax Extend-C18 2.1 x 50 mm; eluents: water / acetonitrile, 0.1% formic acid
PROPERTY: RP-LC retention time (s)

Here is how some compounds turned out for RP-LC retention time.
# COMPOUND, RP-LC retention time / s
rows = [
    ("CCc1cccc(NC(=O)Cn2nc3c(Sc4ccccc4)nccn3c2=O)c1", 1010),
    ("O=C(O)c1cn(-c2ccc3c(c2)OCO3)nn1", 645),
    ("O=C(NCC1CCCCC1)C1CCN(C(=O)c2ncn3c2COC(c2ccccc2)C3)CC1 (configuration not stated)", 802),
    ("COc1ccc(N2C(=O)C3N=NN(Cc4nc(-c5ccc(C)cc5)no4)C3C2=O)cc1OC (configuration not stated)", 915),
    ("COc1ccc(F)cc1S(=O)(=O)N1CCn2c(nn(C)c2=O)C1", 654),
]

1 = CCc1noc2ncnc(NCCN(C)Cc3ccccc3)c12
2 = Cn1ncc2c(Nc3ccc([N+](=O)[O-])cc3)nc(Cl)nc21
Incoming: So which one has the bigger RP-LC retention time here, 1 or 2 ? The response must carry the label of the picked entry.
Outgoing: 2
(2: 963 s, 1: 595 s)

a = Cn1c(N2CCN(C(=O)c3cc4ccccc4[nH]3)CC2)cc(=O)n(C)c1=O
b = CC(C)OCCCNC(=O)C1CCCN(c2nc3ccccc3n(Cc3ccccc3)c2=O)C1 (configuration not stated)
Incoming: Lab log: flag the item ( a or b ) with the smaller RP-LC retention time figure. The response must carry the label of the picked entry.
Outgoing: a

P = Cc1cc(CN2CCC(CNC(=O)C(=O)NCc3ccccc3Cl)CC2)c(C)o1
Q = Cc1cc(S(=O)(=O)N2C[C@@H](F)C[C@H]2C(=O)N2CCCCC2)ccc1Cl
Incoming: So which one has the bigger RP-LC retention time here, P or Q ? The response must carry the label of the picked entry.
Outgoing: Q

###

# ASSAY TEXT: gradient 5% acetonitrile 3 min, to 50% in 2 min, to 85% in 15 min, held 3 min, 100 µL/min
# CONDITION SET: column: Zorbax Extend-C18 2.1 x 50 mm; eluents: water / acetonitrile, 0.1% formic acid
PROPERTY: RP-LC retention time (s)

# MOLECULE, OUTPUT UNIT, RP-LC retention time
rows = [
    ("Cc1ccc(-n2nc3c(=O)n(C(C)C(=O)NCc4ccc5c(c4)OCO5)nc(C)c3c2C)cc1 (stereo not drawn)", "s", 878),
    ("Cc1cccc(CNC(=O)CCc2conc2-c2ccccc2)c1", "s", 923),
    ("CCCN1CCn2cc(S(=O)(=O)Nc3ccc(OC)cc3)cc2C1=O", "s", 715),
]
